read-out: E-selectin (Homo sapiens); test: BSK_3C_Eselectin: BioMAP Diversity Plus: 3C Assay for Eselectin Biomarker Activity (AID 2283015); settings: primary human endothelial cells (HUVEC); actives raise or lower the signal
Activity calls are given as the source filed them. Rule for the calls: active = hit-call score of the fitted dose curve at least 0.9, where 1 is the maximum; inactive = score below 0.9.
Possible outcomes: yes (1) for active, no (0) for inactive

COMPOUND | CATEGORY
CC(C)c1ccc(CO)cc1 | no (0)
Nc1ccc(-c2ccc(N)c(Cl)c2)cc1Cl | no (0)
CCOP(=S)(OCC)Oc1ccc(S(C)=O)cc1 (centres undefined) | no (0)
ClC1=C(Cl)[C@]2(Cl)[C@H]3[C@H]([C@H]4C=C[C@H]3C4)[C@@]1(Cl)C2(Cl)Cl | no (0)
Cn1sc(Cl)cc1=O | no (0)
O=[N+]([O-])c1ccc(O)c([N+](=O)[O-])c1 | no (0)
CCCCCCCCc1ccc(O)cc1 | yes (1)
ClC1(Cl)C2(Cl)C3(Cl)C4(Cl)C(Cl)(Cl)C5(Cl)C3(Cl)C1(Cl)C5(Cl)C24Cl (centres undefined) | no (0)
NC(=S)Nc1ccccc1 | no (0)
C=C(C)C(=O)[O][Sn]([CH2]CCC)([CH2]CCC)[CH2]CCC | yes (1)
BrCCBr | no (0)
CC1(C)Cc2cccc(O)c2O1 | no (0)
COc1cc(-c2ccc(N)c(OC)c2)ccc1N | no (0)
COC(=O)Cc1ccccc1 | no (0)

###

read-out: Interleukin-8 (IL8), CXCL8 (gene 3576); assay: BSK_hDFCGF_IL8: BioMAP Diversity Plus: hDFCGF Assay for Interleukin-8 (IL8) Biomarker Activity (AID 2283058); conditions: primary human foreskin fibroblasts; actives raise or lower the signal
The source made the active and inactive calls. The calls were made as follows: active = hit-call score of the fitted dose curve at least 0.9, where 1 is the maximum; inactive = score below 0.9.
QUANTITY MEASURED: AC50

COMPOUND | MEASURED RESULT
CC1(C)Cc2cccc(O)c2O1 | inactive
Oc1c(I)cc(I)cc1I | inactive
O=C1C2(Cl)C3(Cl)C4(Cl)C(Cl)(Cl)C5(Cl)C3(Cl)C1(Cl)C5(Cl)C24Cl (stereo unspecified) | 14.3 µM (active)
O=C(O)CCC(F)(C(F)(F)F)C(F)(F)F | inactive
ClC1(Cl)C2(Cl)C3(Cl)C4(Cl)C(Cl)(Cl)C5(Cl)C3(Cl)C1(Cl)C5(Cl)C24Cl (stereo unspecified) | inactive
COP(=S)(OC)Oc1cc(Cl)c(Cl)cc1Cl | inactive

###

read-out: Paternally Expressed 10 (PEG10), PEG10 (gene 23089); experiment: LTEA_HepaRG_PEG10: Life Technologies and Expression Analysis (LTEA) Assay for Paternally Expressed 10 (PEG10) using HepaRG (AID 2283520); conditions: mRNA level, 48 h; actives raise or lower the signal
Calls of active or inactive are those of the source. The calls were made as follows: active = hit-call score of the fitted dose curve at least 0.9, where 1 is the maximum; inactive = score below 0.9.
Outcome codes: y = active, n = inactive

COMPOUND | CATEGORY
CC(C)(c1ccccc1)c1ccc(O)c(C(C)(C)c2ccccc2)c1 | n
C=CC(=O)OCCCCCC(C)C | n
O=c1[nH]c(=O)[nH]c(=O)[nH]1 | n
CC12CC1(C)C(=O)N(c1cc(Cl)cc(Cl)c1)C2=O (centres undefined) | y
ClCC(Cl)CCl | n
NC(=O)O | n
COc1cc(-c2ccc(N)c(OC)c2)ccc1N | y
CCN1CCC2(CC1)COc1cc3c(cc12)N(C(=O)c1ccc(-c2ccc(-c4nnc(C)o4)cc2C)cc1)CC3 | y
Cc1ccccc1N | n
CN(C)N=O | n
Oc1cccc2cccnc12 | n
O=C(O)C(F)(F)C(F)(F)C(F)(F)C(F)(F)C(F)(F)C(F)(F)F | n
C[C@]12CCC(=O)C[C@@H]1CC[C@@H]1[C@@H]2CC[C@]2(C)[C@@H](O)CC[C@@H]12 | y
O=C(Nc1ccc2[nH]ccc2c1)c1cc2cc(F)ccc2n1Cc1cccc(F)c1 | y
CC(=O)[O][Hg][c]1ccccc1 | y
CCCCCCCCc1ccc(O)cc1 | n
O=C(O)C(F)(F)C(F)(F)C(F)(F)C(F)(F)C(F)(F)C(F)(F)C(F)(F)C(F)(F)C(F)(F)C(F)(F)F | n
ClC1(Cl)C2(Cl)C3(Cl)C4(Cl)C(Cl)(Cl)C5(Cl)C3(Cl)C1(Cl)C5(Cl)C24Cl (centres undefined) | n
C=C(C)C(=O)[O][Sn]([CH2]CCC)([CH2]CCC)[CH2]CCC | n

###

assay: APR_HepG2_CellLoss_72hr: Apredica 72-hour HepG2 Assay for Cell Loss (AID 2282915); settings: high-content imaging
Active and inactive are the calls of the source. Rule for the calls: active = hit-call score of the fitted dose curve at least 0.9, where 1 is the maximum; inactive = score below 0.9.
Outcome codes: active, inactive

COMPOUND | CATEGORY
Cn1sc(Cl)cc1=O | active
Cc1ccccc1N | inactive
CCC(=O)C(CC(C)N(C)C)(c1ccccc1)c1ccccc1 (configuration not stated) | active
CN(C)N=O | inactive
CC(C)(C)c1cc(O)ccc1O | active
O=C(O)C(F)(F)C(F)(F)C(F)(F)C(F)(F)C(F)(F)C(F)(F)F | active
CC(C)(OO)c1ccccc1 | active
ClC1(Cl)C2(Cl)C3(Cl)C4(Cl)C(Cl)(Cl)C5(Cl)C3(Cl)C1(Cl)C5(Cl)C24Cl (configuration not stated) | inactive
O=C(Nc1ccc2[nH]ccc2c1)c1cc2cc(F)ccc2n1Cc1cccc(F)c1 | active
CC12CC1(C)C(=O)N(c1cc(Cl)cc(Cl)c1)C2=O (configuration not stated) | inactive
Oc1cccc2cccnc12 | active
C=C(C)C(=O)[O][Sn]([CH2]CCC)([CH2]CCC)[CH2]CCC | active
O=C(O)C(F)(F)C(F)(F)C(F)(F)C(F)(F)C(F)(F)C(F)(F)C(F)(F)C(F)(F)C(F)(F)C(F)(F)F | active
O=c1[nH]c(=O)[nH]c(=O)[nH]1 | inactive
CC(C)(c1ccccc1)c1ccc(O)c(C(C)(C)c2ccccc2)c1 | active
C=CC(=O)OCCCCCC(C)C | active
NC(=O)O | active

###

assay: ATG_FoxO_CIS: Attagene CIS-FACTORIAL HepG2 Assay for human Forkhead box O (FoxO) (AID 2282943); settings: HepG2 Attagene cis-reporter, FoxO element, mRNA; actives raise or lower the signal
Active and inactive are the calls of the source. The calls were made as follows: active = hit-call score of the fitted dose curve at least 0.9, where 1 is the maximum; inactive = score below 0.9.
Possible outcomes: true (1) for active, false (0) for inactive

MOLECULE | CATEGORY
Cc1ccc2ccccc2c1C | false (0)
CCCCOCCOC(C)=O | false (0)
Cc1ccc(N)cc1Cl | false (0)
C[C@@H](Oc1ccc(Cl)cc1Cl)C(=O)O | false (0)
O=C(NCO)NCO | false (0)
CC(C)(OO)c1ccccc1 | false (0)
CCN1CCC2(CC1)COc1cc3c(cc12)N(C(=O)c1ccc(-c2ccc(-c4nnc(C)o4)cc2C)cc1)CC3 | false (0)
CC(C)(C)c1cc(O)ccc1O | false (0)
O=C(Cc1ccccc1)c1ccccc1 | false (0)
CCC(=O)C(CC(C)N(C)C)(c1ccccc1)c1ccccc1 (stereo not given) | false (0)
Cc1ccccc1N | false (0)
CC1(C)CCC(Cc2ccc(Cl)cc2)C1(O)Cn1cncn1 (stereo not given) | false (0)
N#Cc1ccccn1 | false (0)
Oc1ccc(-c2ccccc2)cc1 | false (0)
ClCc1ccccn1 | false (0)
CC(C#N)CCC#N (stereo not given) | false (0)
OCc1ccco1 | false (0)
CCOP(=O)(CN(CCO)CCO)OCC | false (0)
Cc1cc(Cl)ccc1O[C@H](C)C(=O)O | false (0)
CCC[CH2][Sn]([CH2]CCC)([CH2]CCC)[O]C(=O)c1ccccc1 | false (0)
O=[N+]([O-])c1c(Cl)c(Cl)cc(Cl)c1Cl | false (0)
C=C(C)C(=O)[O][Sn]([CH2]CCC)([CH2]CCC)[CH2]CCC | true (1)
COP(=S)(OC)Oc1ccc(Sc2ccc(OP(=S)(OC)OC)cc2)cc1 | false (0)
Nc1ncc([N+](=O)[O-])s1 | false (0)
BrCCBr | false (0)
Oc1cccc2cccnc12 | false (0)
c1cc[c]([Hg][c]2ccccc2)cc1 | false (0)
Clc1ccc(C2(Cn3cncn3)CC(Br)CO2)c(Cl)c1 (stereo not given) | false (0)
COP(=S)(OC)Oc1c(Cl)cc(C)cc1Cl | false (0)
Cl/C=C\C[N+]12CN3CN(CN(C3)C1)C2 | false (0)

###

assay: ATG_Sox_CIS: Attagene CIS-FACTORIAL HepG2 Assay for human SRY-box transcription factor (SOX) (AID 2282960); conditions: HepG2 Attagene cis-factorial SOX reporter, mRNA; actives raise or lower the signal
The source made the active and inactive calls. The calls were made as follows: active = hit-call score of the fitted dose curve at least 0.9, where 1 is the maximum; inactive = score below 0.9.
Outcomes: active, inactive

COMPOUND | CATEGORY
ClCCBr | inactive
CCOP(=S)(OCC)SCCS(=O)(=O)CC | inactive
O=Cc1cccc(Oc2ccccc2)c1 | inactive
C[C@H]1O[C@@H](O[C@H]2[C@@H](O)C[C@H](O[C@H]3[C@@H](O)C[C@H](O[C@H]4CC[C@@]5(C)[C@H](CC[C@@H]6[C@@H]5CC[C@]5(C)[C@@H](C7=CC(=O)OC7)CC[C@]65O)C4)O[C@@H]3C)O[C@@H]2C)C[C@H](O)[C@@H]1O | inactive
CC(=O)C=C(C)C | inactive
CCSC(C)CC1CC(=O)C(C(CC)=NOC/C=C/Cl)=C(O)C1 (stereo not given) | inactive
CCCCCCCCc1ccc(O)cc1 | inactive
O=c1[nH]c(=O)[nH]c(=O)[nH]1 | inactive
CC(=O)C(Cl)C(=O)N(C)C (stereo not given) | inactive
COP(=O)(OC)O/C(=C\Cl)c1cc(Cl)c(Cl)cc1Cl | active
O=C/C=C/c1ccccc1 | inactive
COC(=O)c1sccc1S(=O)(=O)NC(=O)Nc1nc(C)nc(OC)n1 | inactive
OCC(O)CCl (stereo not given) | inactive
CNC(=O)O/N=C/C(C)(C)S(C)=O (stereo not given) | inactive
COc1ccc(C=O)cc1OC | inactive
COc1cc(OC)nc(NC(=O)NS(=O)(=O)c2ncccc2C(=O)N(C)C)n1 | inactive
C[C@@H]1C[C@@H]([C@H](O)CC2CC(=O)NC(=O)C2)C(=O)[C@@H](C)C1 | inactive
Nc1cccc2ccccc12 | inactive
Nc1ncc([N+](=O)[O-])s1 | inactive
O=S(=O)(c1ccc(Cl)cc1)c1ccc(Cl)cc1 | inactive
CCC(C)(C)c1ccc(O)c(C(C)(C)CC)c1 | inactive
CCCCCCCCCl | inactive
O=C(Cl)c1ccc(Cl)cc1 | inactive
N#CN=C(N)N | inactive
O=C1C(Cl)=C(Cl)C(=O)c2ccccc21 | inactive
CCC(=O)C(CC(C)N(C)C)(c1ccccc1)c1ccccc1 (stereo not given) | inactive
CC1(C)CCC(Cc2ccc(Cl)cc2)C1(O)Cn1cncn1 (stereo not given) | inactive
O=C1CCCN1 | inactive
Cc1ccc2ccccc2c1C | inactive
COP(=S)(OC)Oc1ccc(S(=O)(=O)N(C)C)cc1 | inactive
C=CC(=O)N(C)C | inactive
CCOC(=O)CP(=O)(OCC)OCC | inactive
NC(=S)Nc1ccccc1 | inactive
O=P(O)(O)CN(CP(=O)(O)O)CP(=O)(O)O | inactive
CCOP(=S)(OCC)SCSP(=S)(OCC)OCC | inactive
COC[C@H](C)N(C(=O)CCl)c1c(C)csc1C | inactive
Oc1c(I)cc(I)cc1I | active
ClC(Cl)=C(Cl)C(Cl)=C(Cl)Cl | inactive
CCN1CCC2(CC1)COc1cc3c(cc12)N(C(=O)c1ccc(-c2ccc(-c4nnc(C)o4)cc2C)cc1)CC3 | inactive
OCc1ccco1 | inactive
Cc1cc(=O)[nH]o1 | inactive
O=[N+]([O-])c1c(Cl)c(Cl)cc(Cl)c1Cl | inactive
C[C@]12CCC(=O)C[C@@H]1CC[C@@H]1[C@@H]2CC[C@]2(C)[C@@H](O)CC[C@@H]12 | inactive
CC(=O)c1cc(C(C)(C)C)cc2c1CCC2(C)C | inactive
N#CCCO | inactive
Oc1ccc(-c2ccccc2)cc1 | active
ClCc1ccccn1 | inactive
Clc1nc(Cl)nc(Cl)n1 | inactive
O=C(CCl)CCl | inactive
O=CC=O | inactive
O=[N+]([O-])c1ccc2c3c(cccc13)CC2 | inactive
COc1cc(-c2ccc(N)c(OC)c2)ccc1N | inactive
CCc1ccccc1C | inactive
C=CCc1ccc(OC)cc1 | inactive
O=C(O)C(Cl)(Cl)Cl | inactive
